Target: CFTR ΔF508 (Homo sapiens, UniProt P13569, DEL508-508)
Construct: bronchial epithelial cells isolated from CF patients homozygous for the CFTR ΔF508 mutation; McGill University; Asterand; University of North Carolina hAEC-CF; host or cells: primary human bronchial epithelial cells from CF patients homozygous for ΔF508, differentiated at air-liquid interface
Sequence (P13569 with tags, fused parts or gaps DEL508-508): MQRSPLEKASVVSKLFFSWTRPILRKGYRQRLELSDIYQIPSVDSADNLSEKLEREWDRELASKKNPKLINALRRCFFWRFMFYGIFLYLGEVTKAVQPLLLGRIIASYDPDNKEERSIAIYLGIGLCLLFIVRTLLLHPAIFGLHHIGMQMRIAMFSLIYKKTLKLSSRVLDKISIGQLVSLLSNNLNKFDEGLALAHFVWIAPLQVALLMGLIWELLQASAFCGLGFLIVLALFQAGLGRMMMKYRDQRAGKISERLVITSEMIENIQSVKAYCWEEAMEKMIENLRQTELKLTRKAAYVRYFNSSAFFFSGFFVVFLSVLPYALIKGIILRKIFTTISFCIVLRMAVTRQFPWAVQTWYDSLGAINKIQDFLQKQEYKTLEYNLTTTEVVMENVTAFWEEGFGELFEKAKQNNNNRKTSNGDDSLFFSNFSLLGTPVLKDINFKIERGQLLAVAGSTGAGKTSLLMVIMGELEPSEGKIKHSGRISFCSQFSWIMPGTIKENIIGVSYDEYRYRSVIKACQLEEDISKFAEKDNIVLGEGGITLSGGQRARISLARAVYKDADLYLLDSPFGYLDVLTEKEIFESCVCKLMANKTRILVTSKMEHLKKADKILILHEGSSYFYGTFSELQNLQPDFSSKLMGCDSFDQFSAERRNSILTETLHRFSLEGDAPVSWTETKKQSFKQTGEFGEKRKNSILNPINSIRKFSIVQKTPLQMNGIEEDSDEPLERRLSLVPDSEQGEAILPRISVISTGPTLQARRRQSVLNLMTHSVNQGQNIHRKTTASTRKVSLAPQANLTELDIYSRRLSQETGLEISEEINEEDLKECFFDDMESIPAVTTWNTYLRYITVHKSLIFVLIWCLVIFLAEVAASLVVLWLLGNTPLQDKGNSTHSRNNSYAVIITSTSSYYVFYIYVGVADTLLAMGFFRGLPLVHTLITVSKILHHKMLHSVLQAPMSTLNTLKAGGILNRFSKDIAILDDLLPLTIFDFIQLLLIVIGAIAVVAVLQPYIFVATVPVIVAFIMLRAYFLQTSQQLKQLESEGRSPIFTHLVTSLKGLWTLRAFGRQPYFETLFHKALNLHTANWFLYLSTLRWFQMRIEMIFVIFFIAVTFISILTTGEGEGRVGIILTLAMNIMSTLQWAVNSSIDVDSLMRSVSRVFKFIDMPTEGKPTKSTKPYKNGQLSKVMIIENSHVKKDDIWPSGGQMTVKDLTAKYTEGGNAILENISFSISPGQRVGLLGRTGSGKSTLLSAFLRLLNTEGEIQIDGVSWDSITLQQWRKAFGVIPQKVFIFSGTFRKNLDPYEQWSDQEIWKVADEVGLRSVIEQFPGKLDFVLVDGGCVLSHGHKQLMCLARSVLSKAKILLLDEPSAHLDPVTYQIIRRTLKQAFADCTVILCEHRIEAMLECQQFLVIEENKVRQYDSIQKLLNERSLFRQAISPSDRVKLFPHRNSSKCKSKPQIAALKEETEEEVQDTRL
Test: Chronic TECC assay, primary bronchial epithelial cells of CF patients homozygous for CFTR ΔF508 (corrector, co-corrector and potentiator)
Assay type: cell-based
Settings: chronic TECC; test compound at 1 μM; AUC = full area under the curve upon forskolin stimulation
readout: % Activity at 1 μM (AUC**) (%)

>>> print(df.to_string())
                           smiles_structure  value_units  reported_value
0  CC(C)c1nn(-c2ccc(F)cc2)c2nc(C(=O)NS(C)(=O)=O)cc(N3CCC(C#N)CC3)c12            %          288.71
1  CN(C)S(=O)(=O)NC(=O)c1cc(N2CCC(CN3CCCC3)CC2)c2c(C3CCC3)nn(-c3ccc(F)cc3)c2n1            %        236.6667
2  CN(C)S(=O)(=O)NC(=O)c1cc(N2CCC(N3CCC(O)CC3)CC2)c2c(C3CCC3)nn(-c3ccc(F)cc3)c2n1            %        726.6667
3  CN(C)S(=O)(=O)NC(=O)c1cc(N2CCC(N3CCOCC3)CC2)c2c(C3CCC3)nn(-c3ccc(F)cc3)c2n1            %             430
4  CNS(=O)(=O)NC(=O)c1cc(N2CCC(N3CCN(C4CC4)CC3)CC2)c2c(C3CCC3)nn(-c3ccccc3)c2n1            %        221.9818
5  COC1CCN(c2cc(C(=O)NS(C)(=O)=O)nc3c2c(C(C)C)nn3-c2ccc(F)cc2)CC1            %             260
6  CC(C)c1nn(-c2ccc(F)cc2)c2nc(C(=O)NS(C)(=O)=O)cc(N3CCC(C4CCN(C)CC4)CC3)c12            %           215.3

Value source: patent US10259810B2
